Biological target: Nuclear receptor ROR-gamma (Mus musculus) (UniProt P51450)
Sequence (P51450 whole entry, looked up): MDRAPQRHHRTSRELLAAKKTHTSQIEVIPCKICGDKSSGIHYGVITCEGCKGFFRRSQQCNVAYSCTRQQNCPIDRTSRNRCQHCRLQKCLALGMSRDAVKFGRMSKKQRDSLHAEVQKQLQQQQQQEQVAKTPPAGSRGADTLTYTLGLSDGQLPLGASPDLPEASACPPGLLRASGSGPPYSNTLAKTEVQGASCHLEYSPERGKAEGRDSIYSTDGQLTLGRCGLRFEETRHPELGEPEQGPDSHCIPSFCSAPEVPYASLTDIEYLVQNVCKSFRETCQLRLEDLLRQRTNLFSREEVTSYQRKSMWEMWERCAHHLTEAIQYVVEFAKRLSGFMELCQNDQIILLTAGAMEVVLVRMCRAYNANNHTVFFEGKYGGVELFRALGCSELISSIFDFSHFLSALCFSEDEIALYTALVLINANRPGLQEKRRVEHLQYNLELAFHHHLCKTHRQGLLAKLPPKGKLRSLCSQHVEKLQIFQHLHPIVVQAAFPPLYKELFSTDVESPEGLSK
Assay: qHTS for inhibitors of ROR gamma transcriptional activity; also: nearly all actives have a fitted effect of over 60% in size; also: potency is read from the fitted curve at half-maximal effect
Details: Drosophila S2 Gal4-RORgamma UAS-luciferase reporter, 20 h; series mostly up to 53.6 µM
About 17,000 (5.5%) of roughly 310,000 compounds were called active. Not shown: some 11% with an inconclusive outcome. The sample holds actives, similar compounds and a random draw of the others, so the mix is not that of the screen.
Parameter Measured: Potency

>>> observed_result("COc1ccc(-n2c(-c3ccc(OC)c(OC)c3)n[nH]c2=S)cc1")
"11.2 µM (active)"
>>> observed_result("CCCOc1cccc(C(=O)NCCCNC(=O)c2cccnc2)c1")
"inactive"
>>> observed_result("COc1ccc(-n2cnc3cc(C(=O)NC4CCCC4)ccc32)cc1")
"inactive"
>>> observed_result("C/C(=N\\NC(=O)Cc1ccc(Br)cc1)c1cccnc1")
"inactive"
>>> observed_result("O=C(COc1ccccc1)NCCc1nc2ccccc2[nH]1")
"inactive"
>>> observed_result("C/C(=N\\NC(=O)Cc1ccc(F)cc1)c1ccc(F)cc1")
"inactive"
>>> observed_result("N#C/C(=C(/O)COC(=O)COc1ccc(Cl)cc1)c1nc2ccccc2[nH]1")
"8.91 µM (active)"
>>> observed_result("COc1ccc(CC(=O)N/N=C(\\C)c2ccccn2)cc1")
"7.08 µM (active)"
>>> observed_result("Cc1ccc(-n2c(-c3ccc(Cl)cc3)n[nH]c2=S)cc1")
"3.16 µM (active)"
>>> observed_result("COc1ccc(C(=O)NC2CCN(C(=S)NCCc3ccccc3)CC2)cc1")
"inactive"
>>> observed_result("COc1ccc(/C(C)=N/NC(=O)c2ccc3nc[nH]c3c2)cc1")
"inactive"
>>> observed_result("O=C(Nc1ccc(NC(=O)c2ccccc2F)cc1)c1ccccc1F")
"inactive"
>>> observed_result("C/C(=N\\NC(=O)c1ccccc1F)c1ccccn1")
"0.631 µM (active)"
>>> observed_result("C/C(CC(=O)Nc1ccc(N(C)C)cc1)=N\\NC(=O)c1ccccc1F")
"inactive"
>>> observed_result("CC(C)n1c(C(O)c2ccccc2)nc2ccccc21 (centres undefined)")
"inactive"
>>> observed_result("COc1ccc(OC)c(-n2c(-c3ccn[nH]3)n[nH]c2=S)c1")
"inactive"
>>> observed_result("O=C(CCc1ccccc1)NNC(=O)c1ccc(Br)cc1")
"inactive"
>>> observed_result("COC(=O)Cn1c2ccc(C)cc2c2nc(C)sc21")
"inactive"
>>> observed_result("O=C(Cc1nc2ccccc2[nH]c1=O)c1ccc(Cl)cc1")
"inactive"
>>> observed_result("COCCCNC(=S)NNC(=O)C(O)(c1ccccc1)c1ccccc1")
"inactive"
>>> observed_result("COCCCNC(=O)c1c(F)c(F)c(F)c(F)c1F")
"inactive"
>>> observed_result("Cc1cc(-c2n[nH]c(=S)n2-c2ccc(C)c(C)c2)no1")
"inactive"
>>> observed_result("CCCNC(=S)N1CCC(NC(=O)c2ccc(OC)cc2)CC1")
"inactive"
>>> observed_result("C/C(=N\\NC(=O)Cc1ccc(Cl)cc1)c1ccccn1")
"0.398 µM (active)"
